- target_system: wild type (WT) PaSAHase (Pseudomonas aeruginosa, UniProt Q9I685)
- Construct: His-tag with TEV site (from vector pMCSG57) (N, cleaved yes); made in house; host or cells: E. coli BL21-CodonPlus(DE3)-RIPL
- Sequence (Q9I685 whole entry): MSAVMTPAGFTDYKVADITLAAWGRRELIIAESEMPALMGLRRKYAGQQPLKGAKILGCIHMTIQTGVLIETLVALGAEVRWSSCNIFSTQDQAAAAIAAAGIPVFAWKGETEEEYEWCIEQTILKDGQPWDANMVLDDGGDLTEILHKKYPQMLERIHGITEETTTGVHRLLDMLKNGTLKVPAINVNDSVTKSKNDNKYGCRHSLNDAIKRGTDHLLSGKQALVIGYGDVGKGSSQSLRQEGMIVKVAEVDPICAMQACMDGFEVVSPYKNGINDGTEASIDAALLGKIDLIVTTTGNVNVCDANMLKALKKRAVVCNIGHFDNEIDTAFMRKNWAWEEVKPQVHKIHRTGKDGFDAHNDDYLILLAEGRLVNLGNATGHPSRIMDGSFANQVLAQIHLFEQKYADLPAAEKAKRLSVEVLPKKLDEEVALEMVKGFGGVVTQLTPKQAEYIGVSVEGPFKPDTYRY
- method_summary: ITC titration of wild type PaSAHase with adenosine
- Assay type: binding
- condition: dissociation constant Kd, 100 mM Rb^+, pH 7.5, 293 K
pKd: −log10 of the molar value.
quantity_measured: pKd

> print(dat)
                                   compound  quantity.measured  meas.value
1  Nc1ncnc2c1ncn2[C@@H]1O[C@H](CO)[C@@H](O)[C@H]1O [adenosine]                pKd        5.74

* * *

- target_system: Q65A PaSAHase (Pseudomonas aeruginosa, UniProt Q9I685, Q65A)
- Construct: His-tag with TEV site (from vector pMCSG57) (N, cleaved yes)
- Sequence (Q9I685 whole entry Q65A): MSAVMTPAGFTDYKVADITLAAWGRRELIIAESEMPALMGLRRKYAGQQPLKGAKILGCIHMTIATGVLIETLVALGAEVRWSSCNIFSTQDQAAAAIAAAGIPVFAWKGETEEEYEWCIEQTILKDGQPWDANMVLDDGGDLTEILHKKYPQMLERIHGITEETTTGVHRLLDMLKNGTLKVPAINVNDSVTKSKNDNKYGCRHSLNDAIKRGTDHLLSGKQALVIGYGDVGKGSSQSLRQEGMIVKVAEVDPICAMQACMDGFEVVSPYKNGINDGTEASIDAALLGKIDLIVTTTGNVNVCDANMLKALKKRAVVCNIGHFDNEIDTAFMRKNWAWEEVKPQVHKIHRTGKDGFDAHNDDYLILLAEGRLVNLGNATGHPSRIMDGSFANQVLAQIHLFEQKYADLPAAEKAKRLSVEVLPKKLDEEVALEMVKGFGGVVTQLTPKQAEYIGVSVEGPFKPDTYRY
- method_summary: ITC titration of Q65A PaSAHase with adenosine
quantity_measured: Kd

> print(dat)
                                        mol  meas.value
1  Nc1ncnc2c1ncn2[C@@H]1O[C@H](CO)[C@@H](O)[C@H]1O      7.3 µM

* * *

- target_system: PaSAHase (Pseudomonas aeruginosa, UniProt Q9I685)
- Construct: His-tag with TEV site (from vector pMCSG57) (N, cleaved yes)
- Sequence (Q9I685 whole entry): as the sequence (Q9I685 whole entry) above
- method_summary: ITC titration of PaSAHase with metal ions (Zn^2+, K^+)
- condition: 100 mM KCl, 50 mM Tris·HCl pH 7.5, 45 μM enzyme, 2 mM ZnCl2, 293 K; read-out: apparent binding constant Kd
quantity_measured: Kd (µM)

> print(dat)
      mol                             target.system  meas.value
1  [Zn+2]  PaSAHase (Pseudomonas aeruginosa, UniProt Q9I685)        12.7
